meta.source: patent US12195427B2

Target or system: MASP-2 CCP2-SP (Homo sapiens (Human))
Sequence (O00187 445-686): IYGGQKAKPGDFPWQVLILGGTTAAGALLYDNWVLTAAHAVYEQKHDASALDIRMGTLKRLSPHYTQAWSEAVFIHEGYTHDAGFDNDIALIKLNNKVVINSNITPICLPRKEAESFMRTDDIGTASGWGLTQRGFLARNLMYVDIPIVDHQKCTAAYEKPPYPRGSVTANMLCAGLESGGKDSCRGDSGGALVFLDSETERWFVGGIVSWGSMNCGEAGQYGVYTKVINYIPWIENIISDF
Sequence (O00187 364-432 partner): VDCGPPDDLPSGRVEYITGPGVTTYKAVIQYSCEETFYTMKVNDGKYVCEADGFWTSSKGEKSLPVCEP
Assay summary: MASP-2 co-crystallization, X-ray crystallography and structure analysis (H-bonds, van der Waals contacts)
Details: Table A6-1 pharmacophore angle
Counter-ions that a name gives are not always drawn.
Reported metric: a(CA1, O1, O2)
Respond numerically, and do not add a unit to the figure.

C[C@H](NC(=O)[C@H](N)C1Cc2ccccc2C1)C(=O)NCc1ccc2nc(N)[nH]c2c1; 102.43

Given the compound Cc1nc(N)ccc1CNC(=O)[C@H](C)NC(=O)[C@H]1C[C@H](Cc2cccc(Cl)c2)CN1.Cl.Cl [1328_2] and test system MASP-2 CCP2-SP (Homo sapiens (Human)), the measured a(CA1, O1, O2) is 103.89

Given the compound Cc1nc(N)ccc1CNC(=O)[C@H](C)NC(=O)[C@H]1C[C@H](Cc2ccccc2-c2ccccc2)CN1 [compound 1373, Di-trifluoroacetate salt] and test system MASP-2 CCP2-SP (Homo sapiens (Human)), the measured a(CA1, O1, O2) is 105.28

Given the compound Cc1nc(N)ccc1CNC(=O)[C@H](C)NC(=O)c1cc(Cc2ccccc2)n[nH]1 and test system MASP-2 CCP2-SP (Homo sapiens (Human)), the measured a(CA1, O1, O2) is 129.48

---

Target or system: UniProtKB O00187
Assay summary: MASP-2 co-crystallization, X-ray crystallography and structure analysis (H-bonds, van der Waals contacts)
Design: unit not given beside the values
Details: Table A2-4
Description: This example illustrates the preparation of recombinant MASP-2 protein, based on UniProt O00187, human mannan-binding lectin serine protease 2. Expression constructs for human MASP-2 CCP2-SP and CCP2-SP-6HIS were generated for recombinant expression in E. coli cells. […]
Counter-ions that a name gives are not always drawn.
van der Waals contact distance, MASP-2 TYR 607 atom CD1 values by entry
Respond numerically, and do not add a unit to the figure.

C[C@H](NC(=O)[C@H](N)CCc1ccccc1)C(=O)NCc1ccc(C(=N)N)cc1; 3.9
Cc1nc(N)ccc1CNC(=O)[C@H](C)NC(=O)[C@H]1C[C@@H](Cc2ccccc2)CCN1; 3.75

# van der Waals contact distance, MASP-2 TYR 607 atom CD1 (molecule: C[C@H](NC(=O)[C@H](N)C1Cc2ccccc2C1)C(=O)NCc1ccc2c(N)nccc2c1 [compound 1088, Dihydrochloride] ) is 3.82

# van der Waals contact distance, MASP-2 TYR 607 atom CD1 (molecule: C[C@H](NC(=O)[C@H](N)C1Cc2ccccc2C1)C(=O)NCc1ccc2nc(N)[nH]c2c1 ) is 3.89

# van der Waals contact distance, MASP-2 TYR 607 atom CD1 (molecule: C[C@H](NC(=O)[C@H](N)CCc1ccccc1)C(=O)NCc1ccc(N)nc1 ) is 3.84

---

d(O2,H3) values by entry
Target or system: UniProtKB O00187
Assay summary: MASP-2 co-crystallization, X-ray crystallography and structure analysis (H-bonds, van der Waals contacts)
Parameters: unit not given beside the values
Details: Table A5-2 pharmacophore distance, S3/S4 region
Respond numerically, and do not add a unit to the figure.

CC(NC(=O)C1CC(Cc2ccccc2)CN1)C(=O)NCc1cnc2c(c1)c(Cl)cn2C.Cl.Cl (mixture of isomers) [1450_A]; 2.31

Given the compound C[C@H](NC(=O)[C@H]1C[C@@H](c2ccccc2)CN1)C(=O)NCc1ccc2c(N)nccc2c1.Cl.Cl [1089_A] and test system UniProtKB O00187, the measured d(O2,H3) is 5.94

Given the compound Cc1nc(N)ccc1CNC(=O)[C@H](C)NC(=O)[C@H]1C[C@H](Cc2cccc(Cl)c2)CN1.Cl.Cl [1328_1] and test system UniProtKB O00187, the measured d(O2,H3) is 4.20

Given the compound C[C@H](NC(=O)[C@H](N)CCCc1ccccc1)C(=O)NCc1ccc(C(=N)N)cc1.Cl.Cl [1042_1] and test system UniProtKB O00187, the measured d(O2,H3) is 5.43

Given the compound C[C@H](NC(=O)[C@H]1C[C@@H](c2ccccc2)CCN1)C(=O)NCc1cc(Cl)ccc1O.Cl [1078_2] and test system UniProtKB O00187, the measured d(O2,H3) is 2.53

Given the compound CNC(=O)c1ccc2c(=O)n(Cc3ccccc3)c(=O)n(CC(=O)NCc3ccc(C(=N)N)cc3)c2c1 [compound 2018] and test system UniProtKB O00187, the measured d(O2,H3) is 9.00

Given the compound C[C@H](NC(=O)[C@H]1C[C@@H](c2ccccc2)CCN1)C(=O)NCc1cc(Cl)ccc1O.Cl [1078_10] and test system UniProtKB O00187, the measured d(O2,H3) is 1.97

Given the compound C[C@H](NC(=O)[C@H]1C[C@@H](c2ccccc2)CCN1)C(=O)NCc1cc(Cl)ccc1O.Cl [1078_12] and test system UniProtKB O00187, the measured d(O2,H3) is 2.85
